System: sub-genomic HCV NS3-NS5B replicon of genotype 1b (ET subline) in Huh-7 cells
Assay: Replicon Luciferase Cell Based Assay, genotype 1b
Design: species or system HCV genotype 1b
Settings: Hepatitis C virus, Huh-7, 48 h, read-out: Genotype 1b (IC50 μM)
quantity.kind: IC50

[ask] Quote sub-genomic HCV NS3-NS5B replicon of genotype 1b (ET subline) in Huh-7 cells IC50 for entry CCCN(CC1CC1)C(=O)N[C@H]1CCCCC/C=C\[C@@H]2C[C@@]2(C(=O)NS(=O)(=O)C2CC2)NC(=O)[C@@H]2C[C@@H](Oc3cc(-c4nc(C(C)C)cs4)nc4c(C)c(OC)ccc34)CN2C1=O .
[reply] < 0.01 µM

Next item in the queue.
[ask] Quote sub-genomic HCV NS3-NS5B replicon of genotype 1b (ET subline) in Huh-7 cells IC50 for entry COc1ccc2c(O[C@@H]3C[C@H]4C(=O)N[C@]5(C(=O)NS(=O)(=O)C6CC6)C[C@H]5/C=C\CCCCC[C@H](NC(=O)N5CCC(CC(N)=O)CC5)C(=O)N4C3)cc(-c3nc(C(C)C)cs3)nc2c1C .
[reply] < 0.01 µM

----------
Test system: HCV replicon wt
Assay: HCV PI Transient Replicon Assay, wt
Format: cell-based
Conditions: Hepatitis C virus; ET Cured cells, 72 hours
quantity.kind: EC50 (pM)
State the answer as a number, implicitly in pM.

Answered cases to consult:
[ask] Quote HCV replicon wt EC50 for entry COc1ccc2c(O[C@@H]3C[C@H]4C(=O)N[C@]5(C(=O)NS(=O)(=O)C6CC6)C[C@H]5/C=C\CCCCN(C)C(=O)[C@@H]4C3)cc(-c3nc(C(C)C)cs3)nc2c1C .
[reply] 870

[ask] Quote HCV replicon wt EC50 for entry COc1ccc2c(O[C@@H]3C[C@H]4C(=O)N[C@]5(C(=O)NS(=O)(=O)C6CC6)C[C@H]5/C=C\CCCCC[C@H](NC(=O)N5CCCCC5)C(=O)N4C3)cc(-c3nc(C(C)C)cs3)nc2c1C .
[reply] 40

Next item in the queue.
[ask] Quote HCV replicon wt EC50 for entry CC(C)(C)OC(=O)N[C@H]1CCCCC/C=C\[C@@H]2C[C@@]2(C(=O)NS(=O)(=O)C2CC2)NC(=O)[C@@H]2C[C@@H](OC(=O)N3Cc4cccc(F)c4C3)CN2C1=O .
[reply] 70

----------
Tested on: sub-genomic HCV NS3-NS5B replicon of genotype 1b (ET subline) in Huh-7 cells
Assay: Replicon Luciferase Cell Based Assay, genotype 1b
Parameters: species or system HCV genotype 1b
Conditions: Hepatitis C virus, Huh-7, 48 h, read-out: Genotype 1b (IC50 μM)
// reported IC50 per item

[ask] Recall and state the measured IC50 for COc1ccc2c(O[C@@H]3C[C@H]4C(=O)N[C@]5(C(=O)NS(=O)(=O)C6CC6)C[C@H]5/C=C\CCCCC[C@H](NC(=O)N5CCC5)C(=O)N4C3)cc(-c3nc(C4CC4)cs3)nc2c1C [Example 32] .
[reply] < 0.01 µM

[ask] Recall and state the measured IC50 for COc1ccc2c(O[C@@H]3C[C@H]4C(=O)N[C@]5(C(=O)NS(=O)(=O)C6CC6)C[C@H]5/C=C\CCCCC[C@H](NC(=O)N5CCC(C)(C)C5)C(=O)N4C3)cc(-c3nc(C4CC4)cs3)nc2c1C [Example 34] .
[reply] < 0.01 µM
